Hello, the source for this data is ChEMBL document CHEMBL4480397, in case you need it.

- method-description: AUC (0 to infinity) in Sprague-Dawley rat at 1 mg/kg, iv by LC-MS-MS analysis
- Assay type: ADME, organism-based
- Parameters: dose 1 mg/kg, route intravenous, time infinity
- settings: in vivo
measured-endpoint: AUC(0-inf) (ng·h/mL)
Just the number please, in ng·h/mL, no unit attached.

Tell us which AUC(0-inf) value is on record for COc1cc2c3c(ccc2cc1C#N)O[C@H](c1cc(F)c(F)cc1F)[C@@H](N)C3
15400

----------
- method-description: Tmax in Sprague-Dawley rat at 2 mg/kg, po by LC-MS-MS analysis
- Format: ADME, organism-based
- settings: in vivo
measured-endpoint: Tmax (h)
Just the number please, in h, no unit attached.

Tell us which Tmax value is on record for COc1cc2c3c(ccc2cc1C#N)O[C@H](c1cc(F)c(F)cc1F)[C@@H](N)C3
6.67
